Test system: Noggin (protein binding on small-molecule microarray)
TEST SUMMARY: Noggin binders on small-molecule microarray, primary screen, biochemical, 635/667 nm fluorescence (AID 1095);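 note: score merges 667 nm feature fluorescence with signal to noise over triplicate slides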
CONDITION NOTES: 635 nm fluorescence, higher = more signal
Classification field: enter t for composite z-score values not below 0.9, f for values below it.

Input line: # check: composite z-score of `CC(C)CNC(=O)[C@@]1(Cc2ccccc2I)c2ccccc2C(=O)N(C2CCCCC2)[C@H]1c1ccc(CO)cc1` is greater than or equal to 0.9
Output line: f

Input line: For this compound, is measured composite z-score 0.9 or higher? `C=CC[C@]1(C(=O)NCCCOC)N=C(c2ccc(OCCCO)cc2)O[C@H]1c1ccccc1CN=[N+]=[N-]`
Output line: f

Input line: State whether the measured composite z-score reaches 0.9, counting equality as reaching it, for `[N-]=[N+]=Nc1ccccc1[C@@H]1OC(c2ccc(OCCCO)cc2)=N[C@]1(Cc1ccccc1)C(=O)N1CCOCC1`
Output line: f

Input line: Dear colleague, could you confirm whether `O=C(NC1CC1)[C@@H]1c2ccccc2C(=O)N(Cc2ccccc2Cl)[C@H]1c1ccc(CO)cc1` has composite z-score at or above 0.9?
Output line: t

Input line: Can `O=C(c1ccccc1)N1C(=O)[C@]2(COC(c3ccc(OCCCO)cc3)=N2)Cc2ccccc21` be said to have composite z-score at or above 0.9?
Output line: f

Input line: Answer whether composite z-score of `C=C[C@@H](COC(=O)OC(C)(C)C)N(Cc1ccc(OC)cc1)S(=O)(=O)c1ccc(Br)cc1` is greater than or equal to 0.9.
Output line: t

====

TEST SUMMARY: mitochondrial membrane potential change in A549 cells, profiling panel, cell-based, JC-1 fluorescence, basal, 24 h, 100 nL (AID 1138);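 note: A549 lung adenocarcinoma cells under basal conditions with no added stimulus; test concentration not given here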
CONDITION NOTES: higher = more signal
Returns one of true (1) or false (0); true (1) when z-score is >= -0.2.

Input line: Hello, I need to know if `CN(C)C(=O)[C@@]1(CCS(=O)(=O)c2ccccc2)COC(c2ccc(OCCCO)cc2)=N1` has measured z-score not below -0.2. Thanks!
Output line: false (0)

Input line: Would you say `COc1ccccc1CN1C(=O)c2ccccc2[C@@H](C(=O)NC2CC2)[C@@H]1c1ccc(CO)cc1` shows z-score at minimum -0.2?
Output line: true (1)

Input line: Form field: z-score at least -0.2? Entry: `COCCOC(=O)N1C(=O)[C@@]2(c3cc(C#CC4(O)CCCCCC4)ccc31)[C@H](c1ccc(OCCO)cc1)N1[C@H](c3ccccc3)[C@H](c3ccccc3)OC(=O)[C@H]1[C@@H]2C(=O)N1CCN(c2ncccn2)CC1`
Output line: false (0)

Input line: Decide: is the reported value of z-score for `COc1ccc(C#Cc2ccc3c(c2)[C@]2(C(=O)N3)[C@H](C(=O)Nc3nc4ccccc4s3)[C@H]3C(=O)O[C@H](c4ccccc4)[C@H](c4ccccc4)N3[C@@H]2c2ccc(O)cc2)cc1` equal to or greater than -0.2?
Output line: false (0)

Input line: I'd appreciate it if you could say whether `COCCOC(=O)N1C(=O)[C@@]2(c3cc(C#CCC(C(=O)OC)C(=O)OC)ccc31)[C@H](c1ccccc1OCCO)N1[C@H](c3ccccc3)[C@H](c3ccccc3)OC(=O)[C@H]1[C@@H]2C(=O)NC[C@H](O)c1ccccc1` has z-score at least equal to -0.2.
Output line: false (0)

Input line: Threshold query (z-score >= -0.2) on `CCCC[C@@H]1C[C@H]1[C@@H](NC(=O)c1ccco1)c1ccc(-c2ccccc2)cc1`
Output line: false (0)

Input line: Say whether `O=C(CS)NCCCCCCNC(=O)[C@@H]1C[C@@H]2C(=O)NCC(=O)N2[C@@H]1c1cccc(OCCO)c1` shows z-score of -0.2 or more.
Output line: true (1)

Input line: Reported z-score at or above -0.2? COc1cc(Br)cc(C(O)C2C=CC3C(=O)N(C)C(=O)C3N2N2CCCCC2)c1OC (centres undefined)
Output line: false (0)

Input line: Decide: z-score of `C=CCNC(=O)[C@@H]1[C@H]2C(=O)O[C@H](c3ccccc3)[C@H](c3ccccc3)N2[C@H](c2ccccc2OCCO)[C@@]12C(=O)N(C(=O)OCCOC)c1ccccc12` >= -0.2?
Output line: true (1)

Input line: Textbook exercise: given the entry `CN(C)C(=O)[C@]1(Cc2ccccc2N=[N+]=[N-])N=C(c2ccc(OCCCO)cc2)O[C@@H]1c1ccccc1N=[N+]=[N-]` , state whether its z-score is greater than or equal to -0.2.
Output line: true (1)

Input line: Is z-score for C[C@H]1C2[C@H](Cc3ccccc3)NC(=O)[C@]23C(=O)N[C@H](Cc2ccccc2)C(=O)N2CCC[C@H]2C(=O)NC/C=C\C/C=C/C3[C@@H]2O[C@]12C (some centres undefined) at or above -0.2?
Output line: true (1)

Input line: Form field: z-score at least -0.2? Entry: `O=C1C[C@@](C(=O)NCC(F)(F)F)(c2ccc([N+](=O)[O-])cc2)[C@@H](c2ccc(CO)cc2I)N1C1CCCCC1`
Output line: true (1)

Input line: Please indicate if the recorded z-score for `C=C(CCCC)/C(=C/C[C@H](OC(=O)c1ccncc1)c1ccccc1OCCO)c1cnc2ccccc2c1` meets or exceeds -0.2.
Output line: true (1)

Input line: Identify whether the reported z-score of the following compound is -0.2 or greater: `CC(C)N1C(=O)[C@@]2(Cc3ccccc31)c1ccccc1C(=O)N(Cc1ccccc1Cl)[C@H]2c1ccc(CO)cc1`
Output line: true (1)

This collection of values is drawn from PubChem BioAssay.
